- Tested on: DU-4475
- assay_procedure: drug sensitivity score (DSS), CellTiter-Blue viability (DSS (AUC-based score)); higher = stronger viability inhibition; extreme values may be limits of the assay
- run_conditions: incubation time: 72 h
value_kind: drug sensitivity score

Solved entries (count: 5):
[[record]]
molecule = "c1ccc(C2CN3CCSC3=N2)cc1 (configuration not stated) [Tetramisole]"
test_result = 0

[[record]]
molecule = "Cn1cnc2c(F)c(Nc3ccc(Br)cc3F)c(C(=O)NOCCO)cc21 [MEK-162]"
test_result = 16

[[record]]
molecule = "CN1CCN(c2ccc3nc(-c4c(N)c5c(F)cccc5[nH]c4=O)[nH]c3c2)CC1 [Dovitinib]"
test_result = 0

[[record]]
molecule = "CC(=O)O[C@H]1C(=O)[C@@]2(C)[C@H]([C@H](OC(=O)c3ccccc3)[C@]3(O)C[C@H](OC(=O)[C@H](O)[C@@H](NC(=O)c4ccccc4)c4ccccc4)C(C)=C1C3(C)C)[C@]1(OC(C)=O)CO[C@@H]1C[C@@H]2O [Paclitaxel]"
test_result = 18.3

[[record]]
molecule = "COC1=C2C[C@@H](C)C[C@H](OC)[C@H](O)[C@@H](C)/C=C(\\C)[C@H](OC(N)=O)[C@@H](OC)/C=C\\C=C(/C)C(=O)NC(=CC1=O)C2=O [Geldanamycin]"
test_result = 22.5


Endpoint output: drug sensitivity score of CC(C)(C)c1cc(NC(=O)Nc2ccc(-c3cn4c(n3)sc3cc(OCCN5CCOCC5)ccc34)cc2)no1 [Quizartinib] . Value?
0

Endpoint output: drug sensitivity score of O=P(O)(NCCCl)NCCCl [Ifosfamide mustard] . Value?
0
